# Activity per record follows
System: Rattus norvegicus
Assay: Hemodynamic effect in anesthetized Sprague-Dawley rat assessed as increase in cardiac contractility at 10 mg/kg after 90 mins
Assay type: functional, Heart
measured-endpoint: Activity (%)

1. COc1cc[nH]c1/C=C1\C(=O)Nc2cccc(C#CC(O)c3ccc(OCCCN(C)C)cc3)c21 (stereo not drawn): -20
2. CCOc1nc(C(=O)NCc2ccc([S+]([O-])c3ccccc3)cc2)cc(N)c1C#N (stereo not drawn): 24
3. CCOc1nc(C(=O)NCCNc2ccc([N+](=O)[O-])cn2)cc(N)c1C#N: 12
4. CS(=O)(=O)c1ccc(CNC(=O)c2cc(N)c(C#N)c(NC3CCCC3)n2)cc1: 13
5. CC(C)Oc1nc(C(=O)N(C)Cc2ccc(S(C)(=O)=O)cc2)cc(N)c1C#N: 41

---

Experiment: Drug level in anesthetized Sprague-Dawley rat assessed end of infusion plasma concentration at 10 mg/kg after 90 mins
Type: ADME, organism-based
Parameters: dose 10 mg/kg
Conditions: iv
List of concentration at 1.5 h values.
measured-endpoint: concentration at 1.5 h

1. CCCn1c(C2CCNCC2)nc(-c2ccc(Cl)c(Cl)c2)c1-c1ccnc(NC2CCCCC2)n1: 9000 ng/mL
2. CS(=O)(=O)c1ccc(CNC(=O)c2cc(N)c(C#N)c(NC3CCCC3)n2)cc1: 10500 ng/mL
3. CCOc1nc(C(=O)NCc2ccc(S(C)(=O)=O)cc2)cc(N)c1Cl: 14700 ng/mL
4. CC(C)Oc1nc(C(=O)NCc2ccc(S(C)(=O)=O)cc2)cc(O)c1C#N: 39900 ng/mL
5. CC(C)Oc1nc(C(=O)N(C)Cc2ccc(S(C)(=O)=O)cc2)cc(N)c1C#N: 23600 ng/mL
6. CS(=O)(=O)c1ccc(CNC(=O)c2cc(N)c(C#N)c(OCC3CC3)n2)cc1: 8200 ng/mL
7. CCOc1nc(C(=O)NCc2ccc(S(C)(=O)=O)cc2)cc(N)c1C#N: 19300 ng/mL

---

Test system: Rattus norvegicus
Test: Hemodynamic effect in anesthetized Sprague-Dawley rat assessed as increase in cardiac contractility at 10 mg/kg after 90 mins
Format: functional, Heart
measured-endpoint: Activity

1) CCOc1nc(C(=O)NCc2ccc(S(C)(=O)=O)cc2)cc(N)c1C#N: <15%
2) CCOc1nc(C(=O)NCc2ccc(S(C)(=O)=O)cc2)cc(N)c1Cl: <15%
3) CCOc1nc(C(=O)NCc2cnccc2Cl)cc(N)c1C#N: < -15%

Values from ChEMBL document CHEMBL1138387
